Target: CYP2C8 (Homo sapiens)
Construct: Pooled human microsomes were obtained from Sekisui XenoTech, KS; tissue Sekisui XenoTech, KS; host or cells: pooled human liver microsomes
Assay: CYP Inhibition Assay (CYP2C8, human liver microsomes, paclitaxel substrate)
Format: in vitro ADME
Settings: pH 7.4; pooled human liver microsomes 0.1 mg/mL, probe substrate paclitaxel
Here the recorded inhibition at 5 min is given for each entry.

Solved entries (count: 10):
Cn1cc(S(=O)(=O)N(C2CC2)[C@H]2CCC3=Cc4c(cnn4-c4ccc(F)cc4)C[C@]3(C(=O)c3cc(Cl)ccn3)C2)nn1 [Example 268]	50 to 75%
O=C(c1ncc(C(F)(F)F)s1)[C@]12Cc3cnn(-c4ccc(F)cc4)c3C=C1CC[C@H](N(CC(F)(F)F)S(=O)(=O)c1ccc(Cl)nc1)C2 [Example 312]	25 to 50%
Cn1cc(S(=O)(=O)N(C2CC2)[C@H]2CCC3=Cc4c(cnn4-c4ccc(F)cc4)C[C@]3(C(=O)c3ncc(C(F)(F)F)s3)C2)cn1 [Example 176]	25 to 50%
CCN([C@H]1CCC2=Cc3c(cnn3-c3ccc(F)cc3)C[C@]2(C(=O)c2ncc(C(F)(F)F)s2)C1)S(=O)(=O)c1cn(C)cn1 [Example 216]	25 to 50%
Cn1cc(S(=O)(=O)N(CC(C)(C)O)[C@H]2CCC3=Cc4c(cnn4-c4ccc(F)cc4)C[C@]3(C(=O)c3cc(Cl)ccn3)C2)cn1 [Example 246]	25 to 50%
CC(C)N(C(=O)c1cnn(C)c1)[C@H]1CCC2=Cc3c(cnn3-c3ccc(F)cc3)C[C@]2(C(=O)c2ncc(C(F)(F)F)s2)C1 [Example 211]	25 to 50%
Cn1ccc(S(=O)(=O)N(C2CC2)[C@H]2CCC3=Cc4c(cnn4-c4ccc(F)cc4)C[C@]3(C(=O)c3ncc(C4CC4)s3)C2)n1 [Example 160]	50 to 75%
CCN([C@H]1CCC2=Cc3c(cnn3-c3ccc(F)cc3)C[C@]2(C(=O)c2cc(Cl)ccn2)C1)S(=O)(=O)c1ncn(C)n1 [Example 359]	25 to 50%
CN([C@H]1CCC2=Cc3c(cnn3-c3ccc(F)cc3)C[C@]2(C(=O)c2cc(C(F)(F)F)ccn2)C1)S(=O)(=O)c1cnn(C)c1 [Example 81]	25 to 50%
Cn1ccc(S(=O)(=O)[C@H]2CCC3=Cc4c(cnn4-c4ccc(F)cc4)C[C@]3(C(=O)c3ccc(C(F)(F)F)cn3)C2)n1 [Example 272]	≤ 25%

Measured inhibition at 5 min of O=C(c1ncc(C(F)(F)F)s1)[C@]12Cc3cnn(-c4ccc(F)cc4)c3C=C1CC[C@H](N(C1CC1)S(=O)(=O)c1ccc(Cl)cn1)C2 [Example 333] : ≤ 25%

Measured inhibition at 5 min of CCn1ncc(S(=O)(=O)[C@H]2CCC3=Cc4c(cnn4-c4ccc(F)cc4)C[C@]3(C(=O)c3cc(C(F)(F)F)ccn3)C2)n1 [Example 52] : 75 to 90%

Measured inhibition at 5 min of CN([C@H]1CCC2=Cc3c(cnn3-c3ccc(F)cc3)C[C@]2(C(=O)c2cc(C(F)(F)F)ccn2)C1)S(=O)(=O)c1cnn(C)n1 [Example 90] : 50 to 75%

Measured inhibition at 5 min of Cn1ccc(S(=O)(=O)N(C2COC2)[C@H]2CCC3=Cc4c(cnn4-c4ccc(F)cc4)C[C@]3(C(=O)c3cc(C(F)(F)F)ccn3)C2)n1 [Example 198] : 25 to 50%

====

Target: PR (Homo sapiens, UniProt P06401)
Sequence (P06401 1-933): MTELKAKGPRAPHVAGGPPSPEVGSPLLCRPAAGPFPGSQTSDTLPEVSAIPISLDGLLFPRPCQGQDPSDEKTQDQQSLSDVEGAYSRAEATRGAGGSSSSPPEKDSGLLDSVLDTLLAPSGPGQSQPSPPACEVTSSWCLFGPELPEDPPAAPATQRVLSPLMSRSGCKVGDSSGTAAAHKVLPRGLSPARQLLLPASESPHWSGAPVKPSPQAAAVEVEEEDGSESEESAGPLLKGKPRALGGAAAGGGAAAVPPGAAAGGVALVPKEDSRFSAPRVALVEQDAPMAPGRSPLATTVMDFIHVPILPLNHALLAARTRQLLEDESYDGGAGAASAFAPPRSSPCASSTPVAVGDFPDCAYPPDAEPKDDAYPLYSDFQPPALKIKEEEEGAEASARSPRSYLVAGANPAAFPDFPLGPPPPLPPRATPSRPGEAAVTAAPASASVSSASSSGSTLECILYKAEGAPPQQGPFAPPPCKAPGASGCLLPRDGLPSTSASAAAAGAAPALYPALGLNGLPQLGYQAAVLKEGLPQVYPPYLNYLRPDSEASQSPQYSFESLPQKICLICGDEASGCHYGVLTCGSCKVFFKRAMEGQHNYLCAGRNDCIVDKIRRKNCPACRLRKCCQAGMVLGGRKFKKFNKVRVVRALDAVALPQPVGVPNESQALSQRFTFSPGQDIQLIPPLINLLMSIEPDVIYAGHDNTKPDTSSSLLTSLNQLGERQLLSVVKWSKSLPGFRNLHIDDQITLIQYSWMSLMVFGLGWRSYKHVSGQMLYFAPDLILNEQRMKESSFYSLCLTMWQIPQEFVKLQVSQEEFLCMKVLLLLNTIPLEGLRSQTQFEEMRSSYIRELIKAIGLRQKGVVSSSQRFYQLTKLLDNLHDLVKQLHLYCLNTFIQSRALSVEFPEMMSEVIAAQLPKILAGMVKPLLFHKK
Assay: In Vitro PR Luciferase Reporter Assay (antagonist mode, CHO-K1-PR-MMTV-Luc reporter cells)
Conditions: antagonist assay with 20 nM Progesterone, 18-24 hours, read-out: PR antagonism IC50
reportedEndpoint: IC50

Cn1cc(S(=O)(=O)N(CC(C)(C)O)[C@H]2CCC3=Cc4c(cnn4-c4ccc(F)cc4)C[C@]3(C(=O)c3cc(F)ccn3)C2)cn1	> 5 µM
Cn1ccc(S(=O)(=O)N(C2CC(F)(F)C2)[C@H]2CCC3=Cc4c(cnn4-c4ccc(F)cc4)C[C@]3(C(=O)c3ncc(C(F)(F)F)s3)C2)n1	3.6 µM
CN([C@H]1CCC2=Cc3c(cnn3-c3ccc(F)cc3)C[C@]2(C(=O)c2cc(C(F)(F)F)ccn2)C1)S(=O)(=O)c1ccn(C)n1	3.47 µM

Measured IC50 of `Cn1ccc(S(=O)(=O)N(C2CC(F)(F)C2)[C@H]2CCC3=Cc4c(cnn4-c4ccc(F)cc4)C[C@]3(C(=O)c3cc(C(F)(F)F)ccn3)C2)n1` : > 5 µM

Measured IC50 of Cn1cc(S(=O)(=O)C[C@H]2CCC3=Cc4c(cnn4-c4ccc(F)cc4)C[C@]3(C(=O)c3cc(C(F)(F)F)ccn3)C2)cn1 (single isomer, unassigned) : > 5 µM

Measured IC50 of `Cn1ccc(S(=O)(=O)N([C@H]2CCC3=Cc4c(cnn4-c4ccc(F)cc4)C[C@]3(C(=O)c3ncc(C(F)(F)F)s3)C2)[C@H]2C[C@@](C)(O)C2)n1` : > 5 µM

====

Target: CYP2C8 (Homo sapiens)
Construct: Pooled human microsomes were obtained from Sekisui XenoTech, KS; tissue Sekisui XenoTech, KS; host or cells: pooled human liver microsomes
Test: CYP Inhibition Assay (CYP2C8, human liver microsomes, paclitaxel substrate)
Format: in vitro ADME
Details: pH 7.4; pooled human liver microsomes 0.1 mg/mL, probe substrate paclitaxel
Here the recorded inhibition at 5 min is given for each entry.

Solved entries (count: 4):
CCN([C@H]1CCC2=Cc3c(cnn3-c3ccc(F)cc3)C[C@]2(C(=O)c2cc(C(F)(F)F)ccn2)C1)S(=O)(=O)c1cnn(C(F)F)c1 [Example 166]	25 to 50%
Cn1ccc(S(=O)(=O)N(CC(F)F)[C@H]2CCC3=Cc4c(cnn4-c4ccc(F)cc4)C[C@]3(C(=O)c3cc(C(F)(F)F)ccn3)C2)n1 [Example 313]	25 to 50%
O=C(c1cc(F)ccn1)[C@]12Cc3cnn(-c4ccc(F)cc4)c3C=C1CC[C@H](N(C1CC(F)(F)C1)S(=O)(=O)c1ccc(Cl)nc1)C2 [Example 346]	25 to 50%
CN(C(=O)[C@H]1CCC2=Cc3c(cnn3-c3ccc(F)cc3)C[C@]2(C(=O)c2cc(C(F)(F)F)ccn2)C1)c1cnn(C)c1 (single isomer, unassigned) [Example 122]	≤ 25%

Measured inhibition at 5 min of CC(C)N([C@H]1CCC2=Cc3c(cnn3-c3ccc(F)cc3)C[C@]2(C(=O)c2ncc(C(F)(F)F)s2)C1)S(=O)(=O)c1ccn(C)n1 [Example 182] : 50 to 75%

====

Target: CYP2C8 (Homo sapiens, UniProt P10632)
Construct: Pooled human microsomes were obtained from Sekisui XenoTech, KS; tissue Sekisui XenoTech, KS; host or cells: pooled human liver microsomes
Sequence (P10632 whole entry): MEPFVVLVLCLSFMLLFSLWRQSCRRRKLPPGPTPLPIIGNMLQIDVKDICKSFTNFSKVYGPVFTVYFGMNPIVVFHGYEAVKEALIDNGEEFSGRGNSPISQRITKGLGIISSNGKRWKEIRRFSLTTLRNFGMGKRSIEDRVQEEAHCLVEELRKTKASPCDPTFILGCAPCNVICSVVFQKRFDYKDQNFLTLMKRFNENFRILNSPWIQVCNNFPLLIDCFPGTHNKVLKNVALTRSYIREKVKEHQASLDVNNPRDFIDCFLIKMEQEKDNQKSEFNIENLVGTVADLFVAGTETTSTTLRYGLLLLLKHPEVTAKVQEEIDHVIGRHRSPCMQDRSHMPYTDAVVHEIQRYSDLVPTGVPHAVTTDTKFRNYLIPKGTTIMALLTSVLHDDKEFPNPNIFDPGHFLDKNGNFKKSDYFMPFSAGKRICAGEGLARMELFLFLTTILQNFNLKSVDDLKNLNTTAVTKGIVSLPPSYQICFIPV
Assay: CYP Inhibition Assay (CYP2C8, human liver microsomes, paclitaxel substrate)
Format: in vitro ADME
Details: pH 7.4; pooled human liver microsomes 0.1 mg/mL, probe substrate paclitaxel
reportedEndpoint: inhibition at 5 min

Solved entries (count: 6):
Cn1cnc(S(=O)(=O)N(CC(F)(F)F)[C@H]2CCC3=Cc4c(cnn4-c4ccc(F)cc4)C[C@]3(C(=O)c3ncc(C(F)(F)F)s3)C2)n1	25 to 50%
CC(C)N([C@H]1CCC2=Cc3c(cnn3-c3ccc(F)cc3)C[C@]2(C(=O)c2ncc(C(F)(F)F)s2)C1)S(=O)(=O)c1ncn(C)n1	25 to 50%
CN([C@H]1CCC2=Cc3c(cnn3-c3ccc(F)cc3)C[C@]2(C(=O)c2cc(C(F)(F)F)ccn2)C1)S(=O)(=O)c1cn(C)nn1	≤ 25%
Cn1cc(S(=O)(=O)[C@@]2(F)CCC3=Cc4c(cnn4-c4ccc(F)cc4)C[C@]3(C(=O)c3cc(C(F)(F)F)ccn3)C2)cn1	25 to 50%
CN([C@H]1CCC2=Cc3c(cnn3-c3ccc(F)cc3)C[C@]2(C(=O)c2cc(C(F)(F)F)ccn2)C1)S(=O)(=O)c1ccnn1C	75 to 90%
CN([C@H]1CCC2=Cc3c(cnn3-c3ccc(F)cc3)C[C@]2(C(=O)c2ccccn2)C1)S(=O)(=O)c1ccc(Cl)cc1	50 to 75%

Measured inhibition at 5 min of `CC(C)n1ccc(S(=O)(=O)[C@H]2CCC3=Cc4c(cnn4-c4ccc(F)cc4)C[C@]3(C(=O)c3ccc(C(F)(F)F)cn3)C2)n1` : 25 to 50%

Measured inhibition at 5 min of `O=C(c1cc(C(F)(F)F)ccn1)[C@]12Cc3cnn(-c4ccc(F)cc4)c3C=C1CC[C@H](N(C1CC1)S(=O)(=O)c1ccc(Cl)cn1)C2` : 25 to 50%

Measured inhibition at 5 min of `Cn1cnc(S(=O)(=O)N(C2CC2)[C@H]2CCC3=Cc4c(cnn4-c4ccc(F)cc4)C[C@]3(C(=O)c3cc(C(F)(F)F)ccn3)C2)n1` : ≤ 25%

Measured inhibition at 5 min of `CN([C@H]1CCC2=Cc3c(cnn3-c3ccc(F)cc3)C[C@]2(C(=O)c2cc(C(F)(F)F)ccn2)C1)S(=O)(=O)c1ccc(Cl)cc1` : 25 to 50%

Measured inhibition at 5 min of `Cn1cc(S(=O)(=O)N(CC2CC2)[C@H]2CCC3=Cc4c(cnn4-c4ccc(F)cc4)C[C@]3(C(=O)c3cc(C(F)(F)F)ccn3)C2)cn1` : 25 to 50%

Measured inhibition at 5 min of `Cn1cc(S(=O)(=O)N(CC2CC2)[C@H]2CCC3=Cc4c(cnn4-c4ccc(F)cc4)C[C@]3(C(=O)c3cc(C(F)(F)F)ccn3)C2)nn1` : 50 to 75%
